# Read-out: Intercellular Adhesion Molecule 1 (ICAM1), ICAM1 (gene 3383)
# TEST SUMMARY: BSK_3C_ICAM1: BioMAP Diversity Plus: 3C Assay for Intercellular Adhesion Molecule 1 (ICAM1) Biomarker Activity (AID 2283003)
# MEASUREMENT CONDITIONS: primary human endothelial cells (HUVEC); actives raise or lower the signal
# Protocol: BSK_3C is a cell-based, multiplexed-readout assay that uses umbilical vein endothelium, a human vascular primary cell, with measurements taken at 24 hours after chemical dosing in a 96-well plate.BSK_3C_ICAM1 is an assay component measured in the BSK_3C assay. It measures ICAM-1 antibody related to regulation of gene expression using ELISA technology.Data from the assay component BSK_3C_ICAM1 was analyzed into 1 assay endpoint. […]
Activity calls are given as the source filed them. The calls were made as follows: active = hit-call score of the fitted dose curve at least 0.9, where 1 is the maximum; inactive = score below 0.9.
Could you please pick one outcome from this set? YES (active), NO (inactive)

CCn1c2ccccc2c2cc(N)ccc21; NO
O=C1OC2(c3cc(Br)c(O)c(Br)c3Oc3c2cc(Br)c(O)c3Br)c2c(Cl)c(Cl)c(Cl)c(Cl)c21; YES
Nc1cc([N+](=O)[O-])ccc1O; NO
CC(=O)O[C@]1(C(C)=O)CC[C@H]2[C@@H]3C[C@H](C)C4=CC(=O)CC[C@]4(C)[C@H]3CC[C@@]21C; NO
COc1cc(C=O)ccc1OC(=O)C(C)C; NO
C=C[Si](OCC)(OCC)OCC; NO

Continue with the next molecule.
// query Hi team, can someone confirm the assay call for CC[Si](OC(C)=O)(OC(C)=O)OC(C)=O ?
// result NO
